Biological target: human glucagon receptor (human, UniProt P47871 26-477)
Sequence (P47871 26-477): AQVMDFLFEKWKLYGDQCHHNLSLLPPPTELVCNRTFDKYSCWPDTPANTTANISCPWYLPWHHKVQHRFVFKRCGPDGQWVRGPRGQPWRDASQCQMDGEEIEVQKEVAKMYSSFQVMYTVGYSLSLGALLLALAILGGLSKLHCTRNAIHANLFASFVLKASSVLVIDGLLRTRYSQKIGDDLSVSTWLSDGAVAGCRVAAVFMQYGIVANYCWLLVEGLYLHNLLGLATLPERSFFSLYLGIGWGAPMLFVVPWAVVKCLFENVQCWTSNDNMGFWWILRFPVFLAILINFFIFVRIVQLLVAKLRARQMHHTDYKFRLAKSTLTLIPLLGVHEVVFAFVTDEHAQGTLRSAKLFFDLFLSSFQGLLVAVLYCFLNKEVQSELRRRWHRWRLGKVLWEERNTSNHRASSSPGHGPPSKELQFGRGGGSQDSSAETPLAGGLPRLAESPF
Assay: cell-based or functional assay
Positions of bridges follow the written chain, without caps; N, C: chain ends. Non-standard residues stand in square brackets, D forms with d. No end group written: not given here. Aib = CC(C)(N)C(=O)O
recorded.metric: In vitro Activity (Relative Activity of SEQ ID NO: 1, %), from cAMP EC50

1 = Y[Aib]QGTFTSDYSKYLCEKRAQDFVVWLMNT [glucagon derivative of SEQ ID NO: 15]
2 = Y[Aib]QGTFVSDCSKYLDERRAKDFVQWLMNT (bridge 16-20; also: ring between positions 16 and 20, kind not given here) [glucagon derivative of SEQ ID NO: 39]
3 = Y[Aib]QGTFTSDYSKYLDCVRAQDFVQWLMRT [glucagon derivative of SEQ ID NO: 17]
Sort these binders on In vitro Activity (Relative Activity of SEQ ID NO: 1, %), from cAMP EC50 so the largest reading comes first. Put the labels in the requested order and list them out.
3, 2, 1
(3: 23.2%, 2: 3.7%, 1: 1.1%)
